assay: Solubility pH 7.4; type: physicochemical; details: aqueous buffer, Table 1
For each of the molecules below, state its solubility.

Take a look at these entries with their results.
{"Chem Smiles": "Cc1ccc(C#N)cc1-n1c(=N)n(C)c2cnc3ccc(-c4ccccc4Cl)cc3c21", "solubility": "7.8 µg/mL"}
{"Chem Smiles": "Cn1c(=N)n(C2CCN(C3CCOCC3)CC2)c2c3cc(-c4ccc(Cl)cc4)ccc3ncc21", "solubility": "> 47 µg/mL"}
{"Chem Smiles": "Cc1ccc(C#N)cc1-n1/c(=N/S(C)(=O)=O)n(C)c2cnc3ccc(-c4ccc(Cl)cc4)cc3c21", "solubility": "< 1 µg/mL"}

Consider the additional molecule presented here.
Query: Quote solubility reported for Cc1nc(N2CCN(C)CC2)c(C#N)cc1-n1c(=N)n(C)c2cnc3ccc(-c4cccc(F)c4)cc3c21 please.
Result: > 50 µg/mL
